Target: rat adrenergic α1B receptor (Rattus norvegicus)
Construct: rat adrenergic α1B receptor obtained from Wistar Rat liver; from tissue; host or cells: Wistar rat liver
Sequence (P15823 1-515): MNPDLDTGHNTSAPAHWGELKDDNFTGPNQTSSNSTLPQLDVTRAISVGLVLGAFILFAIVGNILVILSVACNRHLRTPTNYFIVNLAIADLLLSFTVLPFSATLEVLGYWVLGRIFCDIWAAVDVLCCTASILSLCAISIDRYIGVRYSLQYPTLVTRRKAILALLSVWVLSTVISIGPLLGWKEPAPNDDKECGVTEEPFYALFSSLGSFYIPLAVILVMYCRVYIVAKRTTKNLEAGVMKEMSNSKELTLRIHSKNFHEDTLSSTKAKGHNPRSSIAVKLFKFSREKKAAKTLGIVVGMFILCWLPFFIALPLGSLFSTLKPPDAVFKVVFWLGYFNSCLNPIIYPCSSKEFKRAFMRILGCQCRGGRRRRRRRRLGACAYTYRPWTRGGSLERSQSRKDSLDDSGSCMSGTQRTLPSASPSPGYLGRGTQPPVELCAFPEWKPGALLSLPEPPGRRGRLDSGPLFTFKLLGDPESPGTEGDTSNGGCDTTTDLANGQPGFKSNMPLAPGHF
Experiment: Radioligand binding, adrenergic α1B ([3H]Prazosin)
Conditions: compound at 0.1 μM; [3H]Prazosin; repeat assays, each datapoint shown; 0.1 µM
If the reported Percentage inhibition of ligand binding, Adrenergic α1B equals or exceeds 40%, assign Yes. If not, assign No.

Q: Dear colleague, could you confirm whether Cc1cnc2c(c1)c1c(n2CC(O)c2ccncc2)CCN(C)C1 (single isomer, unassigned) [55b] has Percentage inhibition of ligand binding, Adrenergic α1B at or above 40%?
Ans: Yes

Q: Dear colleague, could you confirm whether CN1CCc2c(c3cc(C(F)(F)F)ccc3n2CC(O)c2cccnc2)C1 (single isomer, unassigned) [59b] has Percentage inhibition of ligand binding, Adrenergic α1B at or above 40%?
Ans: No

Q: Dear colleague, could you confirm whether CN1CCc2c(c3cccc(Cl)c3n2CC(C)(O)c2cccnc2)C1 (single isomer, unassigned) [57b] has Percentage inhibition of ligand binding, Adrenergic α1B at or above 40%?
Ans: No

Q: Dear colleague, could you confirm whether CN1CCc2c(c3cccc(Cl)c3n2CC(C)(O)c2cccnc2)C1 (single isomer, unassigned) [57a] has Percentage inhibition of ligand binding, Adrenergic α1B at or above 40%?
Ans: No

Q: Dear colleague, could you confirm whether CN1CCc2c(c3cc(C(C)(C)O)ccc3n2CC(O)c2ccncc2)C1 (single isomer, unassigned) [23b] has Percentage inhibition of ligand binding, Adrenergic α1B at or above 40%?
Ans: No

Q: Dear colleague, could you confirm whether C/C(=C\n1c2c(c3cc(C)cnc31)CN(C)CC2)c1ccc(C)nc1 has Percentage inhibition of ligand binding, Adrenergic α1B at or above 40%?
Ans: No

Q: Dear colleague, could you confirm whether Cc1ccc2c(c1)c1c(n2CC(O)c2ccc(F)cc2)CN(C)CC1 (single isomer, unassigned) [18a] has Percentage inhibition of ligand binding, Adrenergic α1B at or above 40%?
Ans: Yes

* * *

Provide the reported inhibition at 0.03 µM of each item.
Biological target: human recombinant adrenergic α2B receptor (Homo sapiens, UniProt P18089)
Construct: expressed in transfected cells; host or cells: CHO-K1
Sequence (P18089 whole entry): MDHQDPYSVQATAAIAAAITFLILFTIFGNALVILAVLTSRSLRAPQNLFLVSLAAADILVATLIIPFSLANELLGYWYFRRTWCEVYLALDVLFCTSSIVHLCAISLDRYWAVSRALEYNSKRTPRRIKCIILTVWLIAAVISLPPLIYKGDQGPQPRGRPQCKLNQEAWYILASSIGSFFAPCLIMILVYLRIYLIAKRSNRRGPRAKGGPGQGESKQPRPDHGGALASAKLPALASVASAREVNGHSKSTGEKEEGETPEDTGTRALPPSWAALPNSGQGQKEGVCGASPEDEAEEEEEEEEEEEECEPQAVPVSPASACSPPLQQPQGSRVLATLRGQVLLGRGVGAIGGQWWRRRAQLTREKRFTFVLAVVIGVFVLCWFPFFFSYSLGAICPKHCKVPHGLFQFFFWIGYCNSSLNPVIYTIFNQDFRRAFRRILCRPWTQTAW
Assay: Radioligand binding, adrenergic α2B ([3H]Rauwolscine)
Conditions: compound at 0.03 μM; [3H]Rauwolscine; repeat assays, each datapoint shown; read-out: Percentage inhibition of ligand binding, Adrenergic α2B
Write your answer as a measured quantity: the number, then the unit.

Q: Fill in reported inhibition at 0.03 µM for this entry: Cc1cnc2c(c1)c1c(n2CCc2ccc(C)nc2)CCN2CCCC12 (single isomer, unassigned) [74a]
Ans: 93%

Q: Fill in reported inhibition at 0.03 µM for this entry: Cc1ccc2c(c1)c1c(n2CC(=O)c2cc[n+]([O-])cc2)CCN(C)C1 [compound 68]
Ans: 4%

Q: Fill in reported inhibition at 0.03 µM for this entry: Cc1ccc2c(c1)c1c(n2CC(C)(O)c2cccnc2)CCN(C)C1 (centres unmarked) [compound 5]
Ans: 100%

Q: Fill in reported inhibition at 0.03 µM for this entry: Cc1ccc2c(c1)c1c(n2CC2(c3ccccc3)OCCO2)CCN(C)C1 [compound 83]
Ans: 63%

Q: Fill in reported inhibition at 0.03 µM for this entry: CC(O)(Cn1c2c(c3cc(Cl)ccc31)CNCC2)c1ccncn1 (single isomer, unassigned) [42a]
Ans: 29%

Q: Fill in reported inhibition at 0.03 µM for this entry: Cc1ccc2c(c1)c1c(n2CC(C)(O)c2cccnc2)CN(C)CC1 (single isomer, unassigned) [14a]
Ans: 97%

Q: Fill in reported inhibition at 0.03 µM for this entry: Cc1ccc2c(c1)c1c(n2CC(O)c2ccncc2)CCNC1 (single isomer, unassigned) [39a]
Ans: 86%

Q: Fill in reported inhibition at 0.03 µM for this entry: Cc1ccc2c(c1)c1c(n2CC(C)(O)c2ccc(C)nc2)CCN(C)C1 (single isomer, unassigned) [29a]
Ans: 98%

Q: Fill in reported inhibition at 0.03 µM for this entry: CC(O)(Cn1c2c(c3cc(Cl)cnc31)CNCC2)c1ccncc1 (single isomer, unassigned) [12a]
Ans: 24%

Q: Fill in reported inhibition at 0.03 µM for this entry: CCc1ccc(CCn2c3c(c4cc(C)ccc42)CN(C)CC3)cn1 [compound 89]
Ans: 25%

Q: Fill in reported inhibition at 0.03 µM for this entry: COc1ccc(C(O)Cn2c3c(c4cc(C)ccc42)CCN(C)C3)cc1 (single isomer, unassigned) [20a]
Ans: 28%

Q: Fill in reported inhibition at 0.03 µM for this entry: CN1Cc2c(n(CC(O)c3ccncc3)c3ncccc23)C(C)(C)C1 (centres unmarked) [compound 17]
Ans: 37%

Q: Fill in reported inhibition at 0.03 µM for this entry: Cc1ccc2c(c1)c1c(n2CC(O)c2ccncc2)C(C)(C)CN(C)C1 (centres unmarked) [compound 71]
Ans: 9%

Q: Fill in reported inhibition at 0.03 µM for this entry: Cc1ccc2c(c1)c1c(n2CC(C)(O)c2ccncc2)CCN(C)C1 (centres unmarked) [compound 2]
Ans: 75%

Q: Fill in reported inhibition at 0.03 µM for this entry: Cc1ccc2c(c1)c1c(n2CC(O)c2cccnc2)CCN(C)C1 (centres unmarked) [compound 62]
Ans: 76%

Q: Fill in reported inhibition at 0.03 µM for this entry: CN1CCc2c(c3cc(Cl)ccc3n2CCc2cccnc2)C1 [compound 60]
Ans: 66%

Q: Fill in reported inhibition at 0.03 µM for this entry: Cc1ccc2c(c1)c1c(n2C2=C(c3cn[nH]c3)CCC2)CCN(C)C1 [compound 77]
Ans: 84%
